Below, each entry is listed alongside its reported viability, T/C.
tested on: 429239-143-T-J1-PDC complex spheroid viability; experiment: Anticancer human tumor 429239-143-T-J1-PDC patient-derived small cell lung carcinoma cell line growth inhibition [POLQ]; conditions: second compound 0.316 µM; first compound 10 µM; active compounds read low;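 note: luminescence signal used as surrogate measure of viable cells; spheroids exposed to compounds for seven days before readout; 100% = DMSO vehicle control viability as luminescence relative to vehicle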
Numbers only here, please. The scale is %.

Would you please look over these solved cases?
molecule="COc1cccc2c1C(=O)c1c(O)c3c(c(O)c1C2=O)CC(O)(C(=O)CO)CC3OC1CC(N)C(O)C(C)O1 (stereo not drawn) + COC1C(OC(N)=O)C(O)C(Oc2ccc3c(O)c(NC(=O)c4ccc(O)c(CC=C(C)C)c4)c(=O)oc3c2C)OC1(C)C" unit_of_measurement=% numeric_value=0.12
molecule="CC1COCCN1c1cc(-c2ccnn2C)c2ccnc(-c3ccn[nH]3)c2n1 (stereo not drawn) + Cc1cccc(N(C)C(=O)C2C(O)CCN2c2nc(C)cc(C(F)(F)F)c2C#N)c1" unit_of_measurement=% numeric_value=8.22

Measured viability, T/C, COc1cc2cc(C(=O)CCC(=O)O)sc2cc1OC + Nc1ccc(C#CCN(C(=O)Cc2ncc(C(F)(F)F)cc2C(F)(F)F)c2ccc(F)cc2)nn1 : 101
